Value source: the supplement of paper PMC6757056

B1: library; a variant is named by its letters at N, in order (parent)
chain: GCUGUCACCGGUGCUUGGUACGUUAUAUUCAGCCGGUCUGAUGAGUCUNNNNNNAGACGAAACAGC

Variants of: B1
protocolText: normalized RNA/DNA level with ligand (relative to sTRSVctl = 100) (log10 (% of sTRSVctl)); HEK293T overexpressing SLC46A1; ligand concentration (+) RNA-Seq: 6 mM; higher = less ribozyme self-cleavage, higher mRNA level
assaySetup: with (6R,S)-folinic acid; ligand present: yes
Readings of normalized RNA/DNA level with ligand (log10) for the listed variants
Answer using only a numeral; do not append any unit.

Field: example entries. Status: answers known.
[[record]]
variantdescriptor = "GAGACG"
measurement = 2.03

[[record]]
variantdescriptor = "UACCGU"
measurement = 2.02

[[record]]
variantdescriptor = "UGGACA"
measurement = 2.02

[[record]]
variantdescriptor = "GCCACG"
measurement = 2.03

[[record]]
variantdescriptor = "AUAGCU"
measurement = 2

[[record]]
variantdescriptor = "GUCCCC"
measurement = 2

[[record]]
variantdescriptor = "UGUUGU"
measurement = 2

[[record]]
variantdescriptor = "CGUUAC"
measurement = 2.01

[[record]]
variantdescriptor = "UUCUCC"
measurement = 2.02

[[record]]
variantdescriptor = "CUCUCA"
measurement = 2.02


Ask | # query: normalized RNA/DNA level with ligand (log10) of entry AGAGAA
Reply | 1.99

Ask | Any idea what its normalized RNA/DNA level with ligand (log10) is? The variant is AUAACC
Reply | 2

Ask | Could you share which normalized RNA/DNA level with ligand (log10) value was measured for GAAAGA ?
Reply | 2.04

Ask | Given the variant CCACAG , what is its reported normalized RNA/DNA level with ligand (log10)?
Reply | 2

Ask | Record request: normalized RNA/DNA level with ligand (log10) value, item AUCGAG
Reply | 2
